Attribution: PubChem BioAssay

# experiment-summary: viability loss with induced miR-34 in A549 – imaging, A549 dox-inducible miR-34, nuclei and caspase counts, primary screen (AID 1347080)
# experimental-conditions: A549 miR-34 inducible, Hoechst nuclei count, 48 h; measured here: total cells with miR-34 induction; stronger effect = lower value
Collected cell count values appear next to each entry.
value-type: cell count

# compound, quantitative-result
records = [
    ("CCNC(=O)c1cccnc1N1CCN(c2ccc(C)cc2C)CC1", 6880),
    ("O=C(Nc1ccccc1)Nc1ccc(-c2ccc(C(=O)C3CCCC3C(=O)O)cc2)cc1 (stereo not given)", 9210),
    ("C#C[C@@]1(O)CC[C@H]2[C@@H]3CCc4cc(O)ccc4[C@@H]3CC[C@@]21C", 6120),
    ("CC=C1NC(=O)C2CSSCCC=CC(CC(=O)NC(C(C)C)C(=O)N2)OC(=O)C(C(C)C)NC1=O (stereo not given)", 596),
    ("Cc1nc2ccc(-c3ncnc4sccc34)cc2c(=O)[nH]1", 9390),
]

###

# experiment-summary: drug combination growth inhibition, ovarian cancer – cell-based, oncology-focused library, rucaparib conditional, profiling panel (AID 1508598)
# experimental-conditions: patient-derived ovarian cancer cells, CellTiter-Glo viability, 144 h; at 1.25 µM; OCI-P5x cells; with rucaparib 20 µM; 100% = cells with rucaparib alone
Activity calls are given as the source filed them.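 The calls were made as follows: active = normalized viability below 100% at a tested concentration; inactive = the rest.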
Classes used: YES = active, NO = inactive

# smiles-structure, group
rows = [
    ("NC(=O)CCCSc1nc(N)nc(-c2c(Cl)cc3c4c(cccc24)COC3)n1", "YES"),
    ("CC(=O)O[C@@]1(C(C)=O)CC[C@H]2[C@@H]3C[C@H](C)C4=CC(=O)CC[C@]4(C)[C@@H]3CC[C@@]21C", "NO"),
    ("COc1ccc(C2=N[C@H](c3ccc(Cl)cc3)[C@@H](c3ccc(Cl)cc3)N2C(=O)N2CCNC(=O)C2)c(OC(C)C)c1", "YES"),
    ("CC#C[C@@]1(O)CC[C@H]2[C@@H]3CCC4=CC(=O)CCC4=C3[C@H](c3ccc(N(C)C)cc3)C[C@@]21C", "YES"),
    ("C[C@@]1(c2nc3c(C(N)=O)cccc3[nH]2)CCCN1", "YES"),
    ("COc1cccc2c1C(=O)c1c(O)c3c(c(O)c1C2=O)C[C@@](O)(C(=O)CO)C[C@H]3O[C@H]1C[C@H](N)[C@H](O)[C@H](C)O1", "YES"),
    ("CC1(C)O[C@@H]2C[C@H]3[C@@H]4CCC5=CC(=O)C=C[C@]5(C)[C@]4(F)[C@H](O)C[C@]3(C)[C@@]2(C(=O)CO)O1", "YES"),
    ("CN(C)CCOc1ccc(-c2nc(-c3ccc4c(c3)CCC4=NO)c(-c3ccncc3)[nH]2)cc1", "YES"),
]

###

# experiment-summary: viability loss with induced miR-34 in A549 – imaging, A549 dox-inducible miR-34, nuclei and caspase counts, primary screen (AID 1347080)
# experimental-conditions: A549 miR-34 inducible, Hoechst nuclei count, 48 h; stronger effect = lower value; cell number ratio, induced over uninduced
Please assign rule not met whenever fold change is at or above 0.9, and rule met whenever it is below.

# molecule, group
measured = [
    ("O=C(O)CCc1c(C(=O)O)[nH]c2cc(Cl)cc(Cl)c12", "rule met"),
    ("COc1ccccc1Cn1ncc2[nH]c(-c3ccccc3OC)nc21", "rule met"),
    ("O=[N+]([O-])OCC(CO[N+](=O)[O-])O[N+](=O)[O-]", "rule met"),
    ("COC1=CC(=O)CC(C)[C@@]12Oc1c(Cl)c(OC)cc(OC)c1C2=O (some centres undefined)", "rule not met"),
    ("c1ccc(NCc2ccc(CNc3ccccn3)cc2)nc1", "rule not met"),
    ("CCOC(=O)C1=C(N)Oc2ccc(Br)cc2[C@H]1C(C#N)C(=O)OCC (some centres undefined)", "rule not met"),
]

###

# experiment-summary: drug combination growth inhibition, ovarian cancer – cell-based, oncology-focused library, rucaparib conditional, profiling panel (AID 1508598)
# experimental-conditions: patient-derived ovarian cancer cells, CellTiter-Glo viability, 144 h; at 0.00122 µM; OCI-P5x cells; without rucaparib
The source made the active and inactive calls.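 How the source made its calls: active means normalized viability below 100% at a tested concentration; inactive means the rest.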
Classes used: active, inactive

# compound, group
rows = [
    ("Nc1nonc1C(=Nc1ccc(F)c(Cl)c1)NO", "active"),
    ("COc1cc(C(=O)NC2CCN(C)CC2)ccc1Nc1ncc2c(n1)N(C1CCCC1)CC(F)(F)C(=O)N2C", "active"),
    ("CC(=O)[C@]1(O)Cc2c(O)c3c(c(O)c2[C@H](O[C@H]2C[C@H](N)[C@H](O)[C@H](C)O2)C1)C(=O)c1ccccc1C3=O", "inactive"),
    ("Cc1cc([N+](=O)[O-])ccc1NS(=O)(=O)c1cc(Cl)ccc1Cl", "active"),
    ("C[C@]12CCC(=O)C=C1CC[C@@H]1[C@H]2[C@H](O)C[C@@]2(C)[C@H]1CC[C@@]2(O)C(=O)CO", "inactive"),
    ("c1ccc(Cn2c(-c3ccc(OC[C@H](C4CCNCC4)n4c(-c5ccccc5)nc5ccccc54)cc3)nc3ccccc32)cc1", "active"),
    ("OCCn1cc(-c2ccc3c(c2)CCC3=NO)c(-c2ccncc2)n1", "active"),
    ("CCC1=CC2CN(C1)Cc1c([nH]c3ccccc13)[C@@](C(=O)OC)(c1cc3c(cc1OC)N(C)[C@H]1[C@@](O)(C(=O)OC)[C@H](OC(C)=O)[C@]4(CC)C=CCN5CC[C@@]31[C@H]54)C2 (stereo partly drawn)", "active"),
]

###

# experiment-summary: growth inhibition, MDA-MB-436, cell-based, BGB or cisplatin combos, synergistic combos for chromothripsis tumors (AID 1671458);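 note: cells exposed for 96 hours; 0% = vehicle DMSO and 100% = killing by high DMSO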
# experimental-conditions: MDA-MB-436 breast carcinoma growth inhibition, drug combinations; measured here: cisplatin combination; at 0.5 µM; stronger effect = higher value

# molecule, inhibition / %
rows = [
    ("CCC(C)C(=O)OC1CC(C)C=C2C=CC(C)C(CCC3CC(O)CC(=O)O3)C21 (stereo not given)", -23),
    ("Cc1cc(C=CC#N)cc(C)c1Nc1ccnc(Nc2ccc(C#N)cc2)n1", -45.9),
    ("C=C(C)C1CCC2(C(=O)O)CCC3(C)C(CCC4C5(C)CCC(O)C(C)(C)C5CCC43C)C12 (stereo not given)", -43.5),
    ("COc1nc(N)nc2c1ncn2[C@@H]1O[C@H](CO)[C@@H](O)[C@H]1O", -1.11),
    ("Cc1cn(C2C=CC(CO)O2)c(=O)[nH]c1=O (stereo not given)", -37.6),
    ("COc1cccc2c1C(=O)c1c(O)c3c(c(O)c1C2=O)CC(O)(C(=O)CO)CC3OC1CC(N)C(OC2CCCCO2)C(C)O1 (stereo not given)", 26.1),
    ("O=c1[nH]c(=O)n(C2CC(O)C(CO)O2)cc1I (stereo not given)", -22.4),
    ("COc1ccccc1S(=O)(=O)Nc1ccc2c(c1)CN(C)C(=O)N2", -32.4),
    ("Cc1ccc(NC(=O)CCCCCC(=O)Nc2ccccc2N)cc1", -44.2),
    ("CC(C)C(=O)SCCCCCCC(=O)Nc1nc(-c2ccccc2)cs1", -23.5),
]

###

# experiment-summary: polyglutamine aggregate formation blockers (AID 1604)
# experimental-conditions: polyglutamine-induced protein aggregation inhibition assay; stronger effect = higher value; concentration not given here
Peptide text beside a SMILES is read from it.
Collected inhibition of aggregation values appear next to each entry.

# compound, inhibition of aggregation [%]
records = [
    ("CCN(CCCc1ccccc1)CCCc1ccccc1 (tested in a mixture with another compound)", 31.7),
    ("COC(=O)/C(=C1\\OC(=O)C(c2ccccc2)C1=O)c1ccccc1 (configuration not stated)", 31.4),
    ("OCCS", 29.4),
    ("CC1(C)O[C@@H]2C[C@H]3C4C[C@H](F)C5=CC(=O)C=CC5(C)[C@@]4(F)[C@@H](O)C[C@]3(C)[C@]2(C(=O)CO)O1 (some centres not stated)", 61.1),
    ("C[C@@H]1CC2C3C[C@H](F)C4=CC(=O)C=CC4(C)C3(F)[C@@H](O)CC2(C)C1C(=O)COC(=O)C(C)(C)C (some centres not stated)", 38),
    ("CC(N)C(O)c1cccc(O)c1 (configuration not stated)", 91.7),
    ("CCC(=O)OC1CCC2C3CCc4cc(O)ccc4C3CCC12C (configuration not stated)", 85.9),
    ("CC(C)[C@@H](C)/C=C/[C@@H](C)C1CC[C@H]2/C(=C/C=C3\\C[C@@H](O)CC[C@@H]3C)CCC[C@]12C (some centres not stated)", 83.3),
    ("CC1CC2C3CCC4=CC(=O)C=CC4(C)[C@@]3(F)C(O)CC2(C)[C@@]1(O)C(=O)CO (some centres not stated)", 59.3),
    ("CC(=O)N[C@@H](Cc1c[nH]c2ccccc12)C(=O)O", 74.4),
    ("CN[C@@H]1[C@H](O)[C@H](NC)[C@H]2O[C@@]3(O)C(=O)C[C@@H](C)O[C@H]3OC2[C@H]1O (some centres not stated)", 42.9),
    ("CC(=O)Oc1ccc2c(c1)CCC1C2CCC2(C)C(=O)CCC12 (configuration not stated)", 85.9),
    ("C[C@]12CCC3c4ccc(OC(=O)CCC(=O)O)cc4CCC3C1CCC2=O (some centres not stated)", 33.3),
    ("COc1cccc(C(=O)c2ccccc2O)c1O", 85.8),
    ("NCCCCC(N)C(=O)NCC(=O)NC(Cc1cnc[nH]1)C(=O)NC(CCCCN)C(=O)O (configuration not stated) (H-KGHK-OH; configuration not given here)", 36),
    ("CC[C@@]1(O)C[C@H](OC2CC(N(C)C)C(OC3CC(O)C(OC4CCC(=O)C(C)O4)C(C)O3)C(C)O2)c2c(cc3c(c2O)C(=O)c2c(O)cccc2C3=O)[C@H]1C(=O)OC (some centres not stated)", 1.96),
    ("NCC1CCC(N)C(OC2C(N)CC(N)C(OC3OC(CO)C(O)C(N)C3O)C2O)O1 (configuration not stated)", 4.76),
    ("OCc1cc2c(cn1)[nH]c1ccccc12", -1.27),
    ("CC(=O)CCC1C2=NC(=C\\C3=NC(=C(/C)C4=NC(C)(C5[N-]/C(=C\\2C)C(C)(CCC(=O)NCC(C)OP(=O)(O)O[C@@H]2[C@@H](CO)OC(n6cnc7cc(C)c(C)cc76)[C@@H]2O)C5CC(N)=O)C(C)(CC(N)=O)C4CCC(N)=O)/C(C)(CC(N)=O)C3CCC(N)=O)/C1(C)C.[CH2-][C@H]1OC(n2cnc3c(N)ncnc32)[C@H](O)[C@@H]1O.[Co+2] (some centres not stated)", 44.4),
    ("NC[C@@H]1O[C@H](OC2[C@@H](O)[C@H](O[C@@H]3[C@H](N)[C@@H](O)C[C@H](N)[C@H]3O[C@H]3O[C@H](CO)[C@@H](O)[C@H](O)[C@H]3N)O[C@@H]2CO)[C@H](N)[C@@H](O)[C@@H]1O (some centres not stated)", 16.8),
    ("CC(CNC(=O)c1ccccc1)C(=O)OCC(=O)[C@@]12OC(C)(C)O[C@@H]1CC1C3CCC4=CC(=O)C=C[C@]4(C)[C@@]3(F)[C@@H](O)C[C@@]12C (some centres not stated)", 100),
    ("CC(=O)OCC(=O)[C@@]12OC(C)(C)O[C@@H]1C[C@H]1C3C[C@H](F)C4=CC(=O)C=CC4(C)[C@@]3(F)[C@@H](O)C[C@@]12C (some centres not stated)", 85.9),
    ("COC(=O)C(C)C[N+](C)(C)C (configuration not stated)", 60.6),
    ("CC12CC[C@@H]3c4ccc(O)cc4CCC3[C@@H]1CCC2=O (some centres not stated)", 62),
    ("O=C(Cc1cccs1)NC1C(=O)N2C(C(=O)[O-])=C(C[n+]3ccccc3)CSC12 (configuration not stated)", 59),
    ("NCCNC(=O)c1ccc(Cl)cc1", 66.7),
    ("CC1(C)S[C@@H]2[C@H](NC(=O)[C@@H](N)c3ccc(O)cc3)C(=O)N2[C@H]1C(=O)O", 54.5),
    ("NC[C@@H]1O[C@H](O[C@@H]2[C@@H](CO)OC(O[C@@H]3[C@@H](O)[C@H](N)C[C@H](N)[C@H]3OC3O[C@H](CO)[C@@H](O)[C@H](O)[C@H]3N)[C@@H]2O)[C@H](N)[C@@H](O)[C@@H]1O (some centres not stated)", 42.9),
    ("CCC(=O)c1ccc2c(c1)N(CC(C)N(C)C)c1ccccc1S2 (configuration not stated)", 69.7),
    ("CC[C@]12CCCN3CCc4c(n(c5ccccc45)[C@](O)(C(=O)OC)C1)[C@@H]32", 27),
    ("CCCCCCCCCCCCCCCCCC(=O)OC(CC(=O)O)C[N+](C)(C)C (configuration not stated)", 52.4),
    ("NC[C@H]1O[C@H](O[C@H]2[C@H](O)[C@@H](O[C@H]3O[C@H](CO)[C@@H](O)[C@H](N)[C@H]3O)[C@H](N)C[C@@H]2N)[C@H](O)[C@@H](O)[C@@H]1O", 28.5),
]
